Multi-source literature compilation: IC50 on Receptor-interacting serine/threonine-protein kinase 1 (Homo sapiens).

Compound | IC50
COc1cccc(CNC(=O)c2c[nH]c3ccc(-c4ccc5nc(NC(=O)C6CC6)sc5c4)cc23)c1 | 100 to 1000 nM
O=C(C1CCN(c2nccc(CO)n2)CC1)N1N=CC[C@H]1c1ccccc1 | 1 to 31.6 nM
C[C@H](NC(=O)c1cn(C)c2ccc(-c3ccn4nc(N)nc4c3)cc12)c1cccc(F)c1 | 10 to 100 nM
Cn1cc(C(=O)N[C@@H](CO)c2ccc(F)cc2)c2cc(-c3ccn4nc(NC(=O)C5CC5)nc4c3)ccc21 | 10 to 100 nM
Cc1cc(NC(=O)c2nn(-c3ccccc3)c(C)cc2=O)sn1 | 39100 nM

Fill in IC50 for each of the 4 compounds listed.
1. O=C1c2nn(Cc3ccccc3)c(Cl)c2CCN1c1cccc(Cl)c1F
2. O=C(NCc1cccc(F)c1)c1c[nH]c2ccc(-c3ccc4nc(NC(=O)C5CC5)sc4c3)cc12
3. C[C@H](NC(=O)c1c[nH]c2ccc(-c3ccc(NC(=O)C4CC4)nc3)cc12)c1cccc(F)c1
4. CC(C)C(=O)Nc1nc2cc(-c3ccc4c(c3)c(C(=O)N[C@@H](C)c3ccc(F)cc3)cn4C)ccn2n1

Found:
1. 17.4 nM
2. 10 to 100 nM
3. 100 to 1000 nM
4. 10 to 100 nM

Fill in IC50 for each of the 5 compounds listed.
1. C[C@@H](NC(=O)c1c[nH]c2ccc(-c3ccc4nc(NC(=O)C5CC5)sc4c3)cc12)c1cccc(Cl)c1
2. N#Cc1cnc(N2CCC(C(=O)N3N=CCC3c3ccccc3)CC2)nc1 (racemic)
3. Cc1cc(=O)c(C(=O)Nc2cccc(Cl)c2F)nn1-c1cc(F)ccc1F
4. Nc1nccc(N2CCC(C(=O)N3N=CC[C@H]3c3ccccc3)CC2)n1
5. Cc1cc(=O)c(C(=O)Nc2c3ccccc3nc3ccccc23)nn1-c1ccccc1

Found:
100 to 1000 nM
1 to 31.6 nM
78 nM
1 to 31.6 nM
2190 nM

Fill in IC50 for each of the 2 compounds listed.
1. CN1C(=O)C(NC(=O)c2cc(Oc3ccccc3)ccn2)CCc2ccc(N3CCC4(CCOCC4)CC3)cc21 (racemic)
2. COc1ccc(N(C)C(=O)c2ncn(Cc3ccccc3)n2)c(F)c1Cl

Found:
46.4 nM
9250 nM

====

Multi-source literature compilation: IC50 on Receptor-interacting serine/threonine-protein kinase 1 (Homo sapiens).
One number for each entry, in nM.

Solved cases below.
Molecule | Result Units | Measurement
CN1C(=O)C(NC(=O)c2n[nH]c(Cc3ccccc3)n2)CCc2ccc(C#CC3(O)COC3)cc21 (racemic) | nM | 229
Cc1cc(=O)c(C(=O)Nc2c(Br)cccc2C(C)C)nn1-c1ccccc1 | nM | 489
O=C(Nc1cccc(Cl)c1F)c1n[nH]c(Cc2ccccc2)n1 | nM | 245
Cc1cc(=O)c(C(=O)Nc2ccc(Cl)cn2)nn1-c1ccccc1F | nM | 43800
CC(=O)Nc1cn2nc(-c3cnc4c(c3)C(=O)N(Cc3cc(F)cc(F)c3OC3CCOCC3)CC4)ccc2n1 | nM | 37

Fill in IC50 for each of the 6 molecules listed.
1. O=C(Nc1cccc(Cl)c1)c1n[nH]c(Cc2ccccc2)n1
2. Cc1noc(C2CC2)c1NC(=O)c1nn(-c2ccccc2)c(C)cc1=O
3. Cc1c(Br)c(=O)c(C(=O)NC2CCc3cc(Br)ccc3NC2=O)nn1-c1ccccc1 (stereo not drawn)
4. COc1c2c(nn1Cc1cc(F)ccc1F)C(=O)N(c1cccc(Cl)c1F)CC2
5. CN1C(=O)[C@@H](NC(=O)c2cc(Oc3ccccc3)ccn2)CCc2ccc(-c3ccc(C#CC(C)(C)O)nc3)cc21
6. COc1ncc(-c2ccc3nc(N)sc3c2)cc1C(=O)NC(C)c1ccccc1OC(F)(F)F (single isomer, unassigned)

Found:
[854, 791, 23, 22, 33.4, 14]

Fill in IC50 for each of the 2 molecules listed.
1. CN1C(=O)[C@@H](NC(=O)c2n[nH]c(Cc3ccccc3)n2)CCc2ccc(C#Cc3cccnc3)cc21
2. CN1C(=O)C(NC(=O)c2cc(Oc3ccccc3)ccn2)CCc2ccc(N3CC4(CCOCC4)C3)cc21 (racemic)

Found:
23.4
54
